Target: C-C chemokine receptor type 1 (Homo sapiens)
Sequence (P32246 whole entry): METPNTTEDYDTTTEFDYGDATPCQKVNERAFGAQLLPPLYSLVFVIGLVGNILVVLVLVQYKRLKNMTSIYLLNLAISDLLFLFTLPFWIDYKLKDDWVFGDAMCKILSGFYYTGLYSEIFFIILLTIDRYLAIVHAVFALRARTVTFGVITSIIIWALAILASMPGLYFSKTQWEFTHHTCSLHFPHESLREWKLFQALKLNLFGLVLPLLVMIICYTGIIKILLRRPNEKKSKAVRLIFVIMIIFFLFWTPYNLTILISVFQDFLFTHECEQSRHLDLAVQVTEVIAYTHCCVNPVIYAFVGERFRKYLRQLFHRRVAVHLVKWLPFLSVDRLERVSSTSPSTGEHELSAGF
Assay: Antagonist activity at human CCR1 assessed as inhibition of MIP-1-alpha-induced [35S]-GTPgammaS binding after 3 to 4 hrs
pKi: −log10 of the molar value.
recorded endpoint: pKi

> print(dat)
                               smiles.entry  recorded.endpoint  readout.value
1  O=C(O)c1ccccc1Oc1ccc(C(F)(F)F)cc1NS(=O)(=O)c1ccc(Cl)cc1                pKi           6.30
2  O=C(O)c1ccccc1Oc1c(F)cc(C(F)(F)F)cc1NS(=O)(=O)c1ccc(Cl)cc1                pKi           6.90

1: O=C(O)c1ccccc1Oc1ccccc1NS(=O)(=O)c1ccc(Cl)cc1
2: O=C(O)c1c(F)cccc1Oc1ccc(C(F)(F)F)cc1NS(=O)(=O)c1ccc(Cl)cc1
INPUT: Of the two listed items, 1 and 2 , which carries the larger pKi figure? State the label of the item chosen.
OUTPUT: 2

----------
assay: Half life in iv dosed in rat; assay type: ADME, organism-based; conditions: in vivo
recorded endpoint: half-life (h)

> print(dat)
                               smiles.entry  recorded.endpoint  readout.value
1  O=C(NCCO)c1ccccc1Oc1ncc(Cl)cc1NS(=O)(=O)c1ccc(Cl)c(Cl)c1          half-life            1.1

1: O=S(=O)(Nc1cc(Cl)cnc1Oc1cncc(Cl)c1)c1ccc(Cl)c(Cl)c1
2: Cc1ncccc1Oc1ncc(Cl)cc1NS(=O)(=O)c1ccc(Cl)c(Cl)c1
3: O=C(O)c1ccccc1Oc1ncc(Cl)cc1NS(=O)(=O)c1ccc(Cl)c(Cl)c1
4: O=C(O)c1ccccc1Oc1ccc(Cl)cc1NS(=O)(=O)c1ccc(Cl)c(Cl)c1
INPUT: Arrange items by their half-life values in increasing order. Dear reader, please state the labels in the requested order.
OUTPUT: 2, 1, 3, 4
(2: 0.8 h, 1: 1.2 h, 3: 4.5 h, 4: 6.5 h)

----------
target: UniProt:P32246; experiment: Antagonist activity at CCR1
recorded endpoint: Ki (nM)
Your answer is read as nM, so omit the unit and give the number.

INPUT: # Ki lookup, item Cc1ccc(NS(=O)(=O)c2ccc(Cl)cc2)c(Oc2ccccc2C(=O)O)c1
OUTPUT: 631

----------
target: Cytochrome P450 2C19 (Homo sapiens, UniProt P33261)
Sequence (P33261 whole entry): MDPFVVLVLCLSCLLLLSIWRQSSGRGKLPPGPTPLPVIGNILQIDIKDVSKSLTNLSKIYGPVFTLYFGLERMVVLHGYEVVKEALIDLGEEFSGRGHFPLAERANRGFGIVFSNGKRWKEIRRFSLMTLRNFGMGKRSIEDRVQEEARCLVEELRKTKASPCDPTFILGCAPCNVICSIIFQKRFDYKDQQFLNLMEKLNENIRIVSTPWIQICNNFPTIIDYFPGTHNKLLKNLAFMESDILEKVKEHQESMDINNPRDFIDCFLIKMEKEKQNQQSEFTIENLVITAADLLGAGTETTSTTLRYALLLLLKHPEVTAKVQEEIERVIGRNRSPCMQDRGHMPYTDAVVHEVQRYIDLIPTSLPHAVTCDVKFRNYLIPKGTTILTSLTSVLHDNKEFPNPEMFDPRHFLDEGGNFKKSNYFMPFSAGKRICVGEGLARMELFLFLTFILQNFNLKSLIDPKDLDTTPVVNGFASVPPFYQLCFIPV
recorded endpoint: IC50 (µM)

A: Cc1ncccc1Oc1ncc(Cl)cc1NS(=O)(=O)c1ccc(Cl)c(Cl)c1
B: O=C(O)c1ccccc1Oc1ccc(Cl)cc1NS(=O)(=O)c1ccc(Cl)c(Cl)c1
C: O=C(O)c1ccccc1Oc1ncc(Cl)cc1NS(=O)(=O)c1ccc(Cl)c(Cl)c1
INPUT: Quick favor: sort the compounds up above by IC50, largest first. Please list the labels in the order you were asked to rank them.
OUTPUT: C, A, B
